Assay: Pharmacokinetic experiments in rats (IV, oral suspension, oral solution)
Type: in vivo
Details: male, rat, plasma, oral, 20 mg/kg, Group 5, PO-Solution 20 mg/kg, 1 hr, Mean
QUANTITY_MEASURED: concentration at 1 h (ng/mL)
Reply with just the number (in ng/mL).

Measured concentration at 1 h of O=C(NNc1nc2cc(F)ccc2n2cccc12)c1cnccn1.O=C(O)C(=O)O [NVX-412] : 601

----------
Experiment: Pharmacokinetic experiments in rats (IV, oral suspension, oral solution)
Assay type: in vivo
Settings: male, rat, plasma, iv, 5 mg/kg, IV 5 mg/kg, individual animals, read-out: Tmax
QUANTITY_MEASURED: Tmax (min)
Quick note: give the figure in min, leave out the unit.

So, O=C(NNc1nc2cc(F)ccc2n2cccc12)c1cnccn1.O=C(O)C(=O)O [NVX-412] ? Its Tmax was 4.8
